Assay: Rat pharmacokinetic study
Assay type: in vivo, male Sprague-Dawley rats
Conditions: male, Sprague-Dawley, plasma, PO, single dose 5.8 mg/kg
measured-quantity: Tmax (h)
Give bare numbers, in h.

*Q* Give its Tmax value. Item: "Nc1nc2ccc(S(F)(F)(F)(F)F)cc2s1"
*A* 2.3

---

Experiment: Rat pharmacokinetic study
Type: in vivo, male Sprague-Dawley rats
Details: male, Sprague-Dawley, plasma, PO, single dose 5.8 mg/kg
measured-quantity: half-life (h)
One number for each entry, in h.

*Q* Can you look up the measured half-life of "Nc1nc2ccc(S(F)(F)(F)(F)F)cc2s1" for me?
*A* 7.11

---

Experiment: Rat pharmacokinetic study
Format: in vivo, male Sprague-Dawley rats
Settings: male, Sprague-Dawley, plasma, PO, single dose 5.8 mg/kg
measured-quantity: Cmax (ng/mL)
Answers are plain numbers, in ng/mL.

*Q* Cmax lookup needed for "Nc1nc2ccc(S(F)(F)(F)(F)F)cc2s1" , thanks.
*A* 942

---

Target: human Nav1.7 voltage-gated sodium channels (Homo sapiens, UniProt Q15858)
Sequence (Q15858 whole entry): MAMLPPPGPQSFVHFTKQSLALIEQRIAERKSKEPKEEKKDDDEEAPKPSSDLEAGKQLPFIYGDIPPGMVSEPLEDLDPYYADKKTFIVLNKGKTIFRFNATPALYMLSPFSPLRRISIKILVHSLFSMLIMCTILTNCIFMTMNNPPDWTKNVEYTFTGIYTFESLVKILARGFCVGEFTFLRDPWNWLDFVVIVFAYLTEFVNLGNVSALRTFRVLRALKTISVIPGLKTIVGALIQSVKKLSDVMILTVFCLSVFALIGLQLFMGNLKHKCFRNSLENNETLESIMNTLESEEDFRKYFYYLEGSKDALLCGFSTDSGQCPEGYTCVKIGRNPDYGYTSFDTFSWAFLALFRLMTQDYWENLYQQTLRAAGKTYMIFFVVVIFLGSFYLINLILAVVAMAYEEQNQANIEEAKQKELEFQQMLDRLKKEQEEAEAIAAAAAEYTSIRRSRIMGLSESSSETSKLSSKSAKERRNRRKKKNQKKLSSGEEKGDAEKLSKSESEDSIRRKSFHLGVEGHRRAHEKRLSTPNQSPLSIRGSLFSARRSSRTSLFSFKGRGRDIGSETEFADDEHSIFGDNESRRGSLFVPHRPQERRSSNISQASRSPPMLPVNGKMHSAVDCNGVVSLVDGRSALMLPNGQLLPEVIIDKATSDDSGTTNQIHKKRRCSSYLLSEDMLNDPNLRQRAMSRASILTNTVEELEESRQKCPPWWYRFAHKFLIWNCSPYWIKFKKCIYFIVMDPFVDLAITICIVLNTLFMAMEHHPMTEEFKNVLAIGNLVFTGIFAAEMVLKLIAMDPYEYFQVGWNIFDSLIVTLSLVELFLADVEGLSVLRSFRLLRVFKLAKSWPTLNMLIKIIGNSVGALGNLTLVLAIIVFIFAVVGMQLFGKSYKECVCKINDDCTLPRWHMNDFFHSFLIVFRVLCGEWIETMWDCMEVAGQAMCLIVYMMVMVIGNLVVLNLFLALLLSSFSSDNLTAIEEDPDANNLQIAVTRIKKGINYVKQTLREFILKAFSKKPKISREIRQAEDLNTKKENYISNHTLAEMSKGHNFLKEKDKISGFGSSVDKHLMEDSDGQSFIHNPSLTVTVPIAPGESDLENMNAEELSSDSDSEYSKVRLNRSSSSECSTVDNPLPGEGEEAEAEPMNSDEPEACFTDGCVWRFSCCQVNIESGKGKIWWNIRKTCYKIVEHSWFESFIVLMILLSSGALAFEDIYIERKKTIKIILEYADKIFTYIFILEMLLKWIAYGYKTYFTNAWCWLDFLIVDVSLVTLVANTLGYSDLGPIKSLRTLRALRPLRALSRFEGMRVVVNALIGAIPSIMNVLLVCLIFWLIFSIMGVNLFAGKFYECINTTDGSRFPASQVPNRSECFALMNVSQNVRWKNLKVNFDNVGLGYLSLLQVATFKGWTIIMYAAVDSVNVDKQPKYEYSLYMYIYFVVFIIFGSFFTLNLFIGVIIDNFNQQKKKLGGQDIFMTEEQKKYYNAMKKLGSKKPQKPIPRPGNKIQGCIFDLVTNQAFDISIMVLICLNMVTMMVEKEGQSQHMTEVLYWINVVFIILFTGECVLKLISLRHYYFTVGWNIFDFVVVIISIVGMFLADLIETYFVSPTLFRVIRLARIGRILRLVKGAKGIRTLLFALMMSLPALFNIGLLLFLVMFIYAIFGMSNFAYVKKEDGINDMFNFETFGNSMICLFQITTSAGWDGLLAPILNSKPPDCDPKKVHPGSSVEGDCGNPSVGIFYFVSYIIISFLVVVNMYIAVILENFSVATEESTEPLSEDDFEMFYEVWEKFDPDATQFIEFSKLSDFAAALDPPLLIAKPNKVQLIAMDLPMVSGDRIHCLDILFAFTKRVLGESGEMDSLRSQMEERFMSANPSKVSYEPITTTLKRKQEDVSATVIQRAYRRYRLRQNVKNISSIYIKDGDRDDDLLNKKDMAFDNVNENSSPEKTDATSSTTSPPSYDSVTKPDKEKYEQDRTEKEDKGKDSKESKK
Experiment: Manual whole-cell patch-clamp, inhibition of hNav1.7 sodium current
Conditions: HEK293 cells stably transfected with SCN9A, holding potential -80 mV, peak current
measured-quantity: pIC50
Give bare numbers, as −log10 of the molar value.

Answered cases to consult:
smiles-notation | recorded-result
Nc1nc2ccc(SC(F)(F)F)cc2[se]1 | 5.93
Nc1nc2ccc(S(F)(F)(F)(F)F)cc2s1 | 6.17

List the reported pIC50 of each compound below.
1. Nc1nc2ccc(S(F)(F)(F)(F)F)cc2[se]1
2. Nc1nc2ccc(OC(F)(F)F)cc2[se]1
3. Nc1nc2ccc(C(F)(F)F)cc2[se]1

*A*
1. 6.14
2. 5.86
3. 6.13

---

Exercise: state measured pIC50 for each of the molecules provided.
Molecular target: UniProtKB Q99250
Sequence (Q99250 whole entry): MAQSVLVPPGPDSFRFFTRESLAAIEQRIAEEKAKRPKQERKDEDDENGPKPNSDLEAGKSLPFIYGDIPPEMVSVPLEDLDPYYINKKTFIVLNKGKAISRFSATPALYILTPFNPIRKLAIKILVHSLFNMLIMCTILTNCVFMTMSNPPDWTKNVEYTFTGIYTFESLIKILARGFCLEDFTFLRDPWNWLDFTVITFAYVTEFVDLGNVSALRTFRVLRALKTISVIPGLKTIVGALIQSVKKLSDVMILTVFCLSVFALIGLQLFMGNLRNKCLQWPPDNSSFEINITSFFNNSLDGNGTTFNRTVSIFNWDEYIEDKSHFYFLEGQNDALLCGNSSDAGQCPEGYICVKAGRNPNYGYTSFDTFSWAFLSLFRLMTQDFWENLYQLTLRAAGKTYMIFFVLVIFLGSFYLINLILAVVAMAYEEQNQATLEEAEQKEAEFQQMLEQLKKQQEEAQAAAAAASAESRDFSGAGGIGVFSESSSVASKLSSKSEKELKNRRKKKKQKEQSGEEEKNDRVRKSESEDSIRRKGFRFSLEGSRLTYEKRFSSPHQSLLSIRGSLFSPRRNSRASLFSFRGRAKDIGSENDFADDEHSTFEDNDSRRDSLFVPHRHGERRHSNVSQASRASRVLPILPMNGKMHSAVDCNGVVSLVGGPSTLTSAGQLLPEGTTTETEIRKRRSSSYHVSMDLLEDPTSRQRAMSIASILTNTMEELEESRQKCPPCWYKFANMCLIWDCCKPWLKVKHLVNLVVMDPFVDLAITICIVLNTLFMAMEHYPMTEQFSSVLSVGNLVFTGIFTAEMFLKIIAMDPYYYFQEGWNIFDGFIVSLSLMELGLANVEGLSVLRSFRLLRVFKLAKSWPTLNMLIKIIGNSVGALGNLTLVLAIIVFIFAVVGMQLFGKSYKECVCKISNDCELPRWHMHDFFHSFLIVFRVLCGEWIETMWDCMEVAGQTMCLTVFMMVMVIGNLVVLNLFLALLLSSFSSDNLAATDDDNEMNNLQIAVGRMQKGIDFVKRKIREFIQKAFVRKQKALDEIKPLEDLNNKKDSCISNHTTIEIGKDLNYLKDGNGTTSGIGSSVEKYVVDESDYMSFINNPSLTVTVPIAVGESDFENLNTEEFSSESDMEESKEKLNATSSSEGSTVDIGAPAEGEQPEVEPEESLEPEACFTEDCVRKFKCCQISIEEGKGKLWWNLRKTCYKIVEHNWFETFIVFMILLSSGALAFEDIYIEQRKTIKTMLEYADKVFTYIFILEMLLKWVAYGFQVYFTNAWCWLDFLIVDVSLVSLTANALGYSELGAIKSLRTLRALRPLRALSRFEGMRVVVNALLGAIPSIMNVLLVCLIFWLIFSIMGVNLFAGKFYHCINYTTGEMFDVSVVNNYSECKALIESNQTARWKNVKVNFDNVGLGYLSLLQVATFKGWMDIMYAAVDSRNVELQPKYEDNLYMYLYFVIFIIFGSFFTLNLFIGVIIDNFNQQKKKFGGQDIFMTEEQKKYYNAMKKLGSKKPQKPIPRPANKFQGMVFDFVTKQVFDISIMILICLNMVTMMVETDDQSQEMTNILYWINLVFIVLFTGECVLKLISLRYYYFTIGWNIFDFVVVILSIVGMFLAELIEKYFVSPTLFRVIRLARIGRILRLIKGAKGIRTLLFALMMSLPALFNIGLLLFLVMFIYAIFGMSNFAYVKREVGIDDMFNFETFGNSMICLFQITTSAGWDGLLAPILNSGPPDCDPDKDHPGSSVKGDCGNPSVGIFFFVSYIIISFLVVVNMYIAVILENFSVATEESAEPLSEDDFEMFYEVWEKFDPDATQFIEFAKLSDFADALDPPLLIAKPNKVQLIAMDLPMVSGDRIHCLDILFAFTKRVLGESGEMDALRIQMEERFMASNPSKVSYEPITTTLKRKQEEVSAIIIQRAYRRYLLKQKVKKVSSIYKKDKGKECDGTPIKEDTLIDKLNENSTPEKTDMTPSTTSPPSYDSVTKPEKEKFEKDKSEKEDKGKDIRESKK
Assay: Manual whole-cell patch-clamp, inhibition of hNav1.2 sodium current
Settings: HEK293 cells stably transfected with SCN2A, holding potential -80 mV, peak current
Protocol: The potential inhibitory effect of Compound I-XXII on human voltage-gated sodium channels (hNav1.2/1.7) was evaluated by manual patch-clamp system according to the procedures as described. HEK293 cell line stably transfected with SCN2A/SCN9A gene was employed in this study and Tetrodotoxin (TTX) was used as a positive control to ensure the good quality of the assay. General procedure: HEK 293 cells were stably transfected with human Nav1.2 or Nav1.7 voltage-gated sodium channels. […]
One number for each entry, as −log10 of the molar value.

Some molecules with recorded pIC50:
smiles-notation | pIC50
Nc1nc2ccc(S(F)(F)(F)(F)F)cc2s1 | 5.33
Nc1nc2ccc(S(F)(F)(F)(F)F)cc2[se]1 | 5.36
Nc1nc2ccc(SC(F)(F)F)cc2[se]1 | 4.81
Nc1nc2ccc(C(F)(F)F)cc2[se]1 | 4.99

Next molecule, please.
*Q* For the molecule "Nc1nc2ccc(OC(F)(F)F)cc2[se]1" , what pIC50 is on record?
*A* 4.74

---

Assay: Rat pharmacokinetic study
Assay type: in vivo, male Sprague-Dawley rats
Conditions: male, Sprague-Dawley, plasma, PO, single dose 5.8 mg/kg
measured-quantity: AUC(0-t) (ng·h/mL)
One number for each entry, in ng·h/mL.

*Q* I have this molecule here, Nc1nc2ccc(S(F)(F)(F)(F)F)cc2s1 [Compound I] , and I need its recorded AUC(0-t).
*A* 7690
